Source: patent US8563000B2

- subjectOfTest: hMC3 (Homo sapiens)
- Construct: expressed in transfected cells; host or cells: CHO-K1
- Sequence (P41968 whole entry): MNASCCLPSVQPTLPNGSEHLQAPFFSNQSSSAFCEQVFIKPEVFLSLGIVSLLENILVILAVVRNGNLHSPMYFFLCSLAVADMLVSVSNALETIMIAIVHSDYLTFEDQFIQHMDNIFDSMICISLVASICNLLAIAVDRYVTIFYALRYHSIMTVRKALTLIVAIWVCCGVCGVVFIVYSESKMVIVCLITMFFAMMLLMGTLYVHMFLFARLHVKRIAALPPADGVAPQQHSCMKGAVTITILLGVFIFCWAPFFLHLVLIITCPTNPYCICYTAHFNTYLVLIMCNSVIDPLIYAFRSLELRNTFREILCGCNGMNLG
- procedureSummary: Cyclic AMP bioassay (ECL), CHO-K1 cells expressing hMC3
- Format: cell-based
- conditionDetails: intracellular cAMP

[
  {
    "smilesStr": "C[C@H]1NC(=O)[C@@H](NC(=O)CN2C(=O)N[C@H](CCCNC(=N)N)C2=O)CSSC[C@@H](C(N)=O)NC(=O)[C@H](Cc2c[nH]c3ccccc23)NC(=O)[C@H](CCCNC(=N)N)NC(=O)[C@@H](Cc2ccccc2)NC(=O)[C@H](Cc2cnc[nH]2)NC1=O",
    "EC50, nM": 23.2
  },
  {
    "smilesStr": "N=C(N)NCCC[C@@H]1NC(=O)[C@@H](Cc2ccccc2)NC(=O)[C@H](Cc2cnc[nH]2)NC(=O)[C@H](CCC(=O)O)NC(=O)[C@@H](N2C(=O)CNC2=O)CSSC[C@@H](C(N)=O)NC(=O)[C@H](Cc2c[nH]c3ccccc23)NC1=O",
    "EC50, nM": 21.8
  }
]
